B1: CPEB3 Ribozyme (parent)
chain: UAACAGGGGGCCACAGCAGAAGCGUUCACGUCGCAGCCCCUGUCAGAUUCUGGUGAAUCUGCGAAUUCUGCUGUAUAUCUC

- Variants of: B1
- test_name: self-cleavage, relative activity (ratio to wild type); higher = more cleavage; in vitro, sequencing
readout_type: self-cleavage

Sample answers from the record:
- sequence_code: "UAACAGGGGGCCACAGCAGAAGCGCUCACGUCGCAGCCCCUGUCAGAUUCUGGUGAAUCUGCGAAUUCUGCAGUAUAUCUC [U25C U72A]"
  self-cleavage: 0.22
- sequence_code: "UAACAGGGGGCCACAGCAGAAGCGUUCACGUCGCAGCCCCUGUCAAAUUCUGGUGAAUCUGCGAAUUCUGCCGUAUAUCUC [G46A U72C]"
  self-cleavage: 0.32
- sequence_code: "UAACAGGGGGCCACAGCUGAAGCGUUCACGUCGCAGCCCCUGUCAGAUUAUGGUGAAUCUGCGAAUUCUGCUGUAUAUCUC [A18U C50A]"
  self-cleavage: 0.4
- sequence_code: "UAACAGGGGGCCACAGCAGAAGCGUUCACAUCGCAGCCCCUGUCAGAUUCUGGUGGAUCUGCGAAUUCUGCUGUAUAUCUC [G30A A56G]"
  self-cleavage: 0.37
- sequence_code: "UAACAGGGGGCCACAGCAGAAGCGUUAACGUCGCAGCCCCUGUCAGAUUCUGGUGAAUCUGCGAAUUCUGCUGUAUAUCCC [C27A U80C]"
  self-cleavage: 0.66
- sequence_code: "UAACAGGGGGCCACAGCAGAAGCGUUCACGUCGCAGCCCCUGUCAGAUUCUGGUGAAUCAGCGAAUUCUGGUGUAUAUCUC [U60A C71G]"
  self-cleavage: 0.35
- sequence_code: "UAACAGGGGGCCACAGCAGAAGCGUUCACGUCGCAGCCCCUGUCAGAUUCUGGAGAAUCUGCGAAUUCUGCUGUAUAUCAC [U54A U80A]"
  self-cleavage: 1.21
- sequence_code: "UAACAGGGGGCCACAGCGGAAGCGUUCACGUCGCAGCCCCUGUCAGAUUCUGGUGAAUCUGAGAAUUCUGCUGUAUAUCUC [A18G C62A]"
  self-cleavage: 0.23
- sequence_code: "UAACAGGGGGCCACAGCACAAGCGUUCACGUCGCAGCCCCUGUCAGAUUCUGGUGGAUCUGCGAAUUCUGCUGUAUAUCUC [G19C A56G]"
  self-cleavage: 0.07
- sequence_code: "UAACAGGGGGCCACAGCAGCAGCAUUCACGUCGCAGCCCCUGUCAGAUUCUGGUGAAUCUGCGAAUUCUGCUGUAUAUCUC [A20C G24A]"
  self-cleavage: 0.21

Give self-cleavage for each listed item.
1. UAACCGGGGGCCACAGCAGAAGCGUUCACGUCGCAGCCCCUGUCAGAUUCUGGUGAAUCUGUGAAUUCUGCUGUAUAUCUC [A5C C62U]
2. UAACAGGGGGCCACAGCAGAAGCGUUCACGUCGCAGCCCCUGUCAGAUUCUGGUGAAUCUGCGAAUUCCUCUGUAUAUCUC [U69C G70U]
3. UAACAGGGGGCCACAGCAGAAGCGUUCACGUCGCAGCCCCUGUCCGAUUCUGGUGAAUCUGCGAAUUCUGCUGUAUAUCUC [A45C]
4. UAACAGGGGGCCACAGCAGAAGCGUUCACCUCGCAGCCCCUGUCAGAUUCUGGUGAAUCUGCGAAUUCUGCUAUAUAUCUC [G30C G73A]
5. UAACAGGGGGCCACAGGAGAAGCGUUCACGUUGCAGCCCCUGUCAGAUUCUGGUGAAUCUGCGAAUUCUGCUGUAUAUCUC [C17G C32U]
6. UAACAGGGGGCCACAGCAGAAGCGUUCACGUCGCAGCACCAGUCAGAUUCUGGUGAAUCUGCGAAUUCUGCUGUAUAUCUC [C38A U41A]
7. UAACAGGGGGCCACAGCAGAAGCGUUCACGUCGCAGCCCCUGUCAGAUUCUGGUGAUUCUGCGAAUUCUACUGUAUAUCUC [A57U G70A]

result:
0.13
0.25
0.38
0.11
0.27
0.19
0.38

Would you mind giving self-cleavage for every variant in the list below?
1. UAACAGGGGGCCACAGCAGAAGCGUCCACGUCGCAGCCCCUGUCAGAUUCUGGUGAAUCUCCGAAUUCUGCUGUAUAUCUC [U26C G61C]
2. UAACAGGGGGCCACAGCAGAAGCGUUCACGUCGCAGCCCCUGUCAGAUUCUGGUGAAUCUGCGAAUUCUGCUGUAUAAUUC [U78A C79U]
3. UAACAGGGGGCCACAGCAGAAGCGUUCACGCCGCAGCCCCUGUCAGAUUCUGGUGAAUCUGCGAAUUCUGCUGUAUUUCUC [U31C A77U]
4. UAACAGGGGGCCACAGCAGAAGCGCUCACGUCGCAGCCCCUGUCAGAUUCUGGUGAAUCUGCCAAUUCUGCUGUAUAUCUC [U25C G63C]

result:
[0.25, 1.29, 0.86, 0.26]

Quick one: give me self-cleavage for each item below, same order please.
1. UAACAGGGGGCCACAGCAGAAGCGUUUACGUCGCAGCCCCUGUCAGAUUCUGGUGAAUCUGCGAAUUCUGCUGUAUAUCAC [C27U U80A]
2. UAACAGGGGGCCACAGCAGAAGCGUUCACGUCGCAGCCCCUGUCAUAUUCUGGUGAGUCUGCGAAUUCUGCUGUAUAUCUC [G46U A57G]
3. UAACAGGGGGCCACAGCAGAAGUGUUCGCGUCGCAGCCCCUGUCAGAUUCUGGUGAAUCUGCGAAUUCUGCUGUAUAUCUC [C23U A28G]
4. UAACAGGGGGCCACAGCAGAAGCGUUCACGUCGCAGCCCCUGUCAGAUUGUGGUGAAUCUGCGAAUUCUGCCGUAUAUCUC [C50G U72C]
5. UAACAGGGGGCCACAGCAGAAGGGUUCACGUCGCAGCCUCUGUCAGAUUCUGGUGAAUCUGCGAAUUCUGCUGUAUAUCUC [C23G C39U]
6. UAACAGGGGGCCACAGCAGGAGCGUUCACGUCGCAGCCCCUGACAGAUUCUGGUGAAUCUGCGAAUUCUGCUGUAUAUCUC [A20G U43A]

result:
1: 0.29; 2: 0.22; 3: 0.26; 4: 0.75; 5: 0.08; 6: 1.05

List reported self-cleavage for each of these variants:
1. UAACAGGGGGCCACAGCAGAAGCGUUCACGUCGCAGCCCCAGUCAGAUUCUGGUGAUUCUGCGAAUUCUGCUGUAUAUCUC [U41A A57U]
2. UAACAGGGGGCCACAGCAGAAGCGUUCACGUCGCAGCCCCUGUCAGAUGCUGGUGUAUCUGCGAAUUCUGCUGUAUAUCUC [U49G A56U]
3. UAACAGGGGGCCACAGCAGAAGCGUUCACGUCGCAGCCCCUGUCAGAUUCUGGUGAAUCUGCGAAUUCUGCGGUAUAACUC [U72G U78A]

result:
[0.13, 0.65, 1.13]

Quick request: self-cleavage for each listed item, please.
1. UAACAGGGGGCCACAGCAGAAGAGUUCACGUCGCAGCCCCUGUCAGACUCUGGUGAAUCUGCGAAUUCUGCUGUAUAUCUC [C23A U48C]
2. UAACAGGGGGCCGCAGCAGAAGCGUUCACGUCGCAGCCCCUGUCAGAUUCUGGUGAAUCUGCGAAUUCUGCUGUAUAUCCC [A13G U80C]
3. UAACAGGGGGCCACAGCAGAAGCGUUCAAGUCGCAGCCCCUGUCAGAUUCUGGUGAAUCAGCGAAUUCUGCUGUAUAUCUC [C29A U60A]
4. UAACAGGGGGACACUGCAGAAGCGUUCACGUCGCAGCCCCUGUCAGAUUCUGGUGAAUCUGCGAAUUCUGCUGUAUAUCUC [C11A A15U]
5. UAACAGGGGGCCACAGCAGAAGCGUUCACGUCACAGCCCCUGUCAGAUUCUGGUGAAUCUGCGGAUUCUGCUGUAUAUCUC [G33A A64G]

result:
1. 0.16
2. 1.03
3. 0.11
4. 0.37
5. 0.16

// each listed variant needs a value for self-cleavage
1. UAACAGGGGGCGACAGCAGAAGCGCUCACGUCGCAGCCCCUGUCAGAUUCUGGUGAAUCUGCGAAUUCUGCUGUAUAUCUC [C12G U25C]
2. UAACAGGGGGCCACAGCAGAAGCGUUCACUUCACAGCCCCUGUCAGAUUCUGGUGAAUCUGCGAAUUCUGCUGUAUAUCUC [G30U G33A]
3. UAACAGGGGGCCACAGCAGAAGCGUUCACGUCGCAGCCCCUGUCAGAUUCUGGUGCAUCUGCGAAUUCUGCUGUAAAUCUC [A56C U76A]

result:
1. 0.14
2. 0.24
3. 0.71
